Assay: CNS and lung tissue concentrations after oral dosing in rats
Type: in vivo
Details: both sexes, Sprague Dawley, rat, brain (CNS tissue); SD rats, oral gavage, 50 mg/kg/day, day 15, 3 h post-dose; read-out: Mean 404-02 CNS Tissue Content (ng/g = ng/mL) ± SEM
Protocol: To examine tissue concentrations following oral dosing, 5 male and 5 female Sprague Dawley (SD) rats were administered 404-02 at 1, 10, 50 or 150 mg/kg/day via oral gavage. Doses were prepared in sesame oil and individualized to body weight on the day of dosing. Animals were sacrificed 3 hours post-dose on day 15 of study following harvest of brain and lung specimens. Each sample collected was rinsed in 1× isotonic phosphate buffered saline and blotted dry before weighing. […]
valueKind: concentration at 3 h

Param item = `CC1(C)CC[C@]2(C(=O)NCC(F)(F)F)CC[C@]3(C)[C@H](C(=O)C[C@@H]4[C@@]5(C)C=C(C#N)C(=O)C(C)(C)[C@@H]5CC[C@]43C)[C@@H]2C1` ; retrieve measured concentration at 3 h.
750 ng/g

----------
Assay: Aqueous solubility determination (Multiscreen solubility filter plate, UV/vis)
Assay type: physicochemical
Conditions: universal aqueous buffer, pH 7.4, aqueous buffer, kinetic from dmso stock, universal aqueous buffer pH 7.4, 90 min, room temperature
Entries and their measured solubility at 90 min follow.
Quick note: number first, unit second.

molecule	solubility at 90 min
CC1(C)CC[C@]2(CN)CC[C@]3(C)[C@H](C(=O)C[C@@H]4[C@@]5(C)C=C(C#N)C(=O)C(C)(C)[C@@H]5CC[C@]43C)[C@@H]2C1	112 µM
COC(=O)[C@]12CCC(C)(C)C[C@H]1[C@H]1C(=O)C=C3[C@@]4(C)C=C(C#N)C(=O)C(C)(C)[C@@H]4CC[C@@]3(C)[C@]1(C)CC2 [Compound 402, reference compound]	1.46 µM
CC1(C)CC[C@]2(CNC(=O)C(F)(F)F)CC[C@]3(C)[C@H](C(=O)C[C@@H]4[C@@]5(C)C=C(C#N)C(=O)C(C)(C)[C@@H]5CC[C@]43C)[C@@H]2C1	0.71 µM
CC1(C)CC[C@]23CC[C@@]4(C)[C@]5(C)CC[C@H]6C(C)(C)C(=O)C(C#N)=C[C@]6(C)[C@H]5CC(=O)[C@@]4([C@@H]2C1)N(CC(F)(F)F)C3=O	5.16 µM
COC(=O)[C@]12CCC(C)(C)C[C@H]1[C@H]1[C@@H](O)C[C@@H]3[C@@]4(C)C=C(C#N)C(=O)C(C)(C)[C@@H]4CC[C@@]3(C)[C@]1(C)CC2	13.6 µM

Param item = `CC1(C)CC[C@]2(CO)CC[C@]3(C)[C@H](C(=O)C[C@@H]4[C@@]5(C)C=C(C#N)C(=O)C(C)(C)[C@@H]5CC[C@]43C)[C@@H]2C1` ; retrieve measured solubility at 90 min.
1.89 µM

Param item = `Cc1cc(CNC[C@]23CCC(C)(C)C[C@H]2[C@H]2C(=O)C[C@@H]4[C@@]5(C)C=C(C#N)C(=O)C(C)(C)[C@@H]5CC[C@@]4(C)[C@]2(C)CC3)no1` ; retrieve measured solubility at 90 min.
0.75 µM

Param item = `CC1(C)CC[C@]2(CCO)CC[C@]3(C)[C@H](C(=O)C[C@@H]4[C@@]5(C)C=C(C#N)C(=O)C(C)(C)[C@@H]5CC[C@]43C)[C@@H]2C1` ; retrieve measured solubility at 90 min.
1.23 µM

Param item = `CC1(C)CC[C@]2([C@@H](O)CO)CC[C@]3(C)[C@H](C(=O)C[C@@H]4[C@@]5(C)C=C(C#N)C(=O)C(C)(C)[C@@H]5CC[C@]43C)[C@@H]2C1` ; retrieve measured solubility at 90 min.
8.78 µM

Param item = `CC1(C)CC[C@]2(C(=O)NCC(F)(F)F)CC[C@]3(C)[C@H](C(=O)C[C@@H]4[C@@]5(C)C=C(C#N)C(=O)C(C)(C)[C@@H]5CC[C@]43C)[C@@H]2C1` ; retrieve measured solubility at 90 min.
0.06 µM

----------
Test: CNS and lung tissue concentrations after oral dosing in rats
Type: in vivo
Settings: both sexes, Sprague Dawley, rat, brain (CNS tissue); SD rats, oral gavage, 10 mg/kg/day, day 15, 3 h post-dose; read-out: Mean 404-02 CNS Tissue Content (ng/g = ng/mL) ± SEM
valueKind: concentration at 3 h (ng/g)
Supply the numeric figure in ng/g, leaving out any unit text.

Param item = `CC1(C)CC[C@]2(C(=O)NCC(F)(F)F)CC[C@]3(C)[C@H](C(=O)C[C@@H]4[C@@]5(C)C=C(C#N)C(=O)C(C)(C)[C@@H]5CC[C@]43C)[C@@H]2C1` ; retrieve measured concentration at 3 h.
421

----------
Entries and their measured pIC50 follow.
Test system: IFNγ-induced NO production in RAW264.7 macrophages
Experiment: Suppression of IFNγ-induced NO production (Griess reagent)
Format: cell-based, mouse
Conditions: Mus musculus; RAW264.7, 20 ng/ml IFNγ 24 h, 2 h pre-treatment
pIC50: −log10 of the molar value.

A selection of reference data follows.
molecule	pIC50
Cn1nnc([C@]23CCC(C)(C)C[C@H]2[C@H]2C(=O)C[C@@H]4[C@@]5(C)C=C(C#N)C(=O)C(C)(C)[C@@H]5CC[C@@]4(C)[C@]2(C)CC3)n1	~7.30
CC1(C)CC[C@]23CC[C@@]4(C)[C@]5(C)CC[C@H]6C(C)(C)C(=O)C(C#N)=C[C@]6(C)[C@H]5CC(=O)[C@@]4([C@@H]2C1)N(CC(F)(F)F)C3=O	~7.10
COC(=O)[C@]12CCC(C)(C)C[C@H]1[C@H]1C(=O)CC3[C@@]4(C)C=C(C#N)C(=O)C(C)(C)[C@@H]4CC[C@@]3(C)[C@]1(C)CC2 (stereo partly drawn)	~7.92
COC(=O)[C@]12CCC(C)(C)C[C@H]1[C@H]1C(=NO)C[C@@H]3[C@@]4(C)C=C(C#N)C(=O)C(C)(C)[C@@H]4CC[C@@]3(C)[C@]1(C)CC2	~7.70
CC(=O)[C@]12CCC(C)(C)C[C@H]1[C@H]1C(=O)C[C@@H]3[C@@]4(C)C=C(C#N)C(=O)C(C)(C)[C@@H]4CC[C@@]3(C)[C@]1(C)CC2	~7.60

Look up pIC50 with IFNγ-induced NO production in RAW264.7 macrophages for this molecule: `CC1(C)CC[C@]2(c3nn[nH]n3)CC[C@]3(C)[C@H](C(=O)C[C@@H]4[C@@]5(C)C=C(C#N)C(=O)C(C)(C)[C@@H]5CC[C@]43C)[C@@H]2C1`
< 6.70

Look up pIC50 with IFNγ-induced NO production in RAW264.7 macrophages for this molecule: `CONC(=O)[C@]12CCC(C)(C)C[C@H]1[C@H]1C(=O)C[C@@H]3[C@@]4(C)C=C(C#N)C(=O)C(C)(C)[C@@H]4CC[C@@]3(C)[C@]1(C)CC2`
~7.30

Look up pIC50 with IFNγ-induced NO production in RAW264.7 macrophages for this molecule: CC1(C)CC[C@]2(C(N)=O)CC[C@]3(C)[C@H](C(=O)CC4[C@@]5(C)C=C(C#N)C(=O)C(C)(C)[C@@H]5CC[C@]43C)[C@@H]2C1 (stereo partly drawn)
~7.60

Look up pIC50 with IFNγ-induced NO production in RAW264.7 macrophages for this molecule: CC1(C)CC[C@]2(C#N)CC[C@]3(C)[C@H](C(=O)CC4[C@@]5(C)C=C(C#N)C(=O)C(C)(C)[C@@H]5CC[C@]43C)[C@@H]2C1 (stereo partly drawn)
~8.30
